assay: Test 2: octanol/phosphate buffer partition coefficient of BPS with various cations; assay type: physicochemical; settings: octanol/phosphate buffer pH 7, compared to no ionic compound added
Counter-ions that a name gives are not always drawn.
attributeMeasured: effect of added compound on the partition coefficient of BPS (in words)

Look over these answered cases.
In [3]: df
Out[3]:
                                   compound          val
0  CCCNC(C)(C)COC(=O)c1ccccc1 [Meprylcaine hydrochloride, reference compound]     increase
1  Cl.N=C(N)NCCC[C@H](N)C(=O)O [arginine hydrochloride, reference compound]  no increase
2  CC[N+](CC)(CC)Cc1ccccc1.[Cl-] [Triethylbenzylammonium chloride]     increase
3  CCCCCCCCCCCC[N+](C)(C)C.[Cl-] [Lauryltrimethylammonium chloride]     increase

// recorded effect of added compound on the partition coefficient of BPS (in words) for [Cl-].[Cl-].[Mg+2] [magnesium chloride, reference compound] : no increase

* * *

For each record, write down the corresponding PC of BPS, Equimolar amount.
assay: Test 2: octanol/phosphate buffer partition coefficient of BPS with various cations; assay type: physicochemical; settings: octanol/phosphate buffer pH 7, 37° C., BPS 240 μg/ml, cation added to give equal charge
Counter-ions that a name gives are not always drawn.
The answer should be written as a number, with no unit following it.

// recorded PC of BPS, Equimolar amount for CCCCCCCCCCCC[n+]1ccccc1.[Cl-] [Laurylpyridinium chloride] : 75.0

// recorded PC of BPS, Equimolar amount for CCN(CC)CC(=O)Nc1c(C)cccc1C [Lidocaine hydrochloride, reference compound] : 17.1

// recorded PC of BPS, Equimolar amount for CCCCCCCCCCCCCCCC[N+](C)(C)C.[Cl-] [Cetyltrimethylammonium chloride] : 91.6

// recorded PC of BPS, Equimolar amount for CCCCCCCCCCCCCCCCCC[N+](C)(C)Cc1ccccc1.[Cl-] [Stearyldimethylbenzylammonium chloride] : 62.3

// recorded PC of BPS, Equimolar amount for CCCNC(C)(C)COC(=O)c1ccccc1 [Meprylcaine hydrochloride, reference compound] : 17.7

// recorded PC of BPS, Equimolar amount for CCCCCCCCCCCC[N+](C)(C)C.[Cl-] [Lauryltrimethylammonium chloride] : 83.5

// recorded PC of BPS, Equimolar amount for CC(C)(C)CC(C)(C)c1ccc(OCCOCC[N+](C)(C)Cc2ccccc2)cc1 [Benzethonium chloride] : 70.8

// recorded PC of BPS, Equimolar amount for CCCCCCCCCCCCCCCCCC[N+](C)(C)C.[Cl-] [Stearyltrimethylammonium chloride] : 83.4

// recorded PC of BPS, Equimolar amount for CC(=O)O.CCCCCCCC/C=C\CCCCCCCCN [Oleylamine acetate] : 30.4

// recorded PC of BPS, Equimolar amount for CCCC[N+](CCCC)(CCCC)Cc1ccccc1.[Cl-] [Tributylbenzylammonium chloride] : 24.5

// recorded PC of BPS, Equimolar amount for CCCCCCCCCCCCCCCCCCCCCC[N+](C)(C)C.[Cl-] [Behenyltrimethylammonium chloride] : 59.5

// recorded PC of BPS, Equimolar amount for CCCCCCCC[N+](C)(C)Cc1ccccc1.[Cl-] [Octyldimethylbenzylammonium chloride] : 60.9

// recorded PC of BPS, Equimolar amount for CCCCCCCCCCCCCC[N+](C)(C)Cc1ccccc1.[Cl-] [Myristyldimethylbenzylammonium chloride] : 64.5

// recorded PC of BPS, Equimolar amount for CC(=O)O.CCCCCCCCCCCCCCCCCCN [Stearylamine acetate] : 32.6

// recorded PC of BPS, Equimolar amount for CCCCCCCCCCCC[N+](C)(C)Cc1ccccc1.[Cl-] [Lauryldimethylbenzylammonium chloride] : 71.2

Every entry's value here was drawn from patent US6919372B1.
